System: HL-60(TB) leukemia
Assay: NCI-60 one-dose screen, 48 h (100 = growth as untreated, 0 = no growth, -100 = all killed)
Settings: 10 µM unless noted
About 83,000 compounds went through this panel and 20% of them were active in at least one assay; those are over-represented in the sample as a whole.
Label No if growth falls below 70%; label Yes in every other case.

{"columns": ["Compound", "Label class"],
 "data": [
  ["COc1ccccc1N1C(=O)/C(=C/C2=Cc3ccccc3OC2)SC1=S", "Yes"],
  ["CS(=O)(=O)Nc1cc(-c2ccc3ncnc(Nc4ccc5[nH]ncc5c4)c3c2)cnc1Cl", "No"],
  ["CC1(C)OC2C(COC(c3ccccc3)(c3ccccc3)c3ccccc3)OC(c3c[nH]c4c(N)ncnc34)C2O1 (configuration not stated)", "No"],
  ["COC(=O)CCCCN=Cc1c(O)c(O)c(C(C)C)c2cc(C)c(-c3c(C)cc4c(C(C)C)c(O)c(O)c(C=NCCCCC(=O)OC)c4c3O)c(O)c12", "No"],
  ["O=C(N/N=C/[C@H](O)[C@H](O)[C@H](O)CO)c1ccc(NC(=O)c2cccnc2)cc1", "Yes"],
  ["CCOC(=O)Cn1c(C)c(/C=N/NC(=O)c2cc3c(ccc4ccccc43)o2)c2ccccc21", "No"],
  ["O=c1[nH]c2ccccc2cc1-c1nnc(Cc2ccccc2)o1", "No"],
  ["O=C(O)c1ccccc1Oc1cc(-c2ccco2)nc(OCCN2CCOCC2)n1", "Yes"],
  ["CC1=Nc2cnc(Nc3ccc(N4CCCCC4)cc3)nc2Nc2ccccc21", "No"],
  ["COc1cc2cc3c(nc2cc1OC)CCN3Cc1ccc(NC(=O)Nc2ccc(F)cc2F)cc1", "Yes"],
  ["COCCn1cc(-c2csc(-c3cn(C)c4ccc(Br)cc34)n2)c2cccnc21", "No"],
  ["N#Cc1c(-c2ccc(Cl)cc2)csc1NC(=O)Nc1ccc(Cl)c(C(F)(F)F)c1", "No"],
  ["C=C1C(=O)O[C@H]2[C@H]1CC/C(COC(=O)n1ccnc1C)=C\\CC[C@@]1(C)O[C@@H]21", "Yes"],
  ["CCCCOc1c(N)cccc1C(=O)OCCN(CC)CC", "No"],
  ["Nc1nc(I)c2ncn(C3OC(CO)C(O)C3O)c2n1 (configuration not stated)", "Yes"],
  ["c1ccc2c[n+](Cc3ccc4ccccc4n3)ccc2c1", "Yes"],
  ["COc1ccc(C(=NN=C(N)N)c2ccc(OC)cc2)cc1", "No"],
  ["Cn1cnc(-c2cc3nccc(Oc4ccc(NC(=S)NC(=O)Cc5ccccc5)cc4F)c3s2)c1", "Yes"],
  ["COc1ccc(/C=N/NC(=O)Cn2c(-c3ccc(S(C)(=O)=O)cc3)nc3cc(Cl)ccc32)cc1", "No"],
  ["Nc1ccc(CCCCc2ccccc2)c(Cl)c1", "Yes"],
  ["O=C1c2cc(Cl)ccc2Oc2cc([N+](=O)[O-])ccc2N1c1ccc(F)cc1F", "Yes"],
  ["CC(=O)CC(=O)c1ccccc1.[Cu+2]", "No"],
  ["COc1cc2c(cc1OC)C(=O)/C(=C/c1cc(C)c(O)c(C)c1)S2", "No"],
  ["COc1ccc(CNCCCN2C(=O)c3ccc4c5c(ccc(c35)C2=O)C(=O)N(CCCNCCCCNCCCN)C4=O)c(OC)c1OC", "No"],
  ["CCOC(=O)/C(=C/CC/C(C)=C/CC/C(C)=C/CCc1ccoc1)CC(=O)N1CCCCC1", "No"],
  ["CN1CC2CCC(C1)C2=O", "Yes"],
  ["Cc1c(C(=O)Nc2nc3ccccc3[nH]2)cnn1-c1ccccn1", "No"],
  ["C=CCn1c(=O)c2cnc(Nc3ccc(N4CCN(C)CC4)cc3)nc2n1-c1cccc(C(C)(C)O)n1", "No"],
  ["Cc1cccc(NC(=O)c2sc3nc4c(cc3c2N)CCCC4)c1C", "No"],
  ["CCc1ccc(C2=C/C(=C/c3ccccc3)C(=O)N2CCc2ccc(S(N)(=O)=O)cc2)cc1", "Yes"],
  ["CC1=NNC(=O)C1C (configuration not stated)", "Yes"],
  ["N#Cc1cccc(-c2ccc3c(c2)NC(=O)/C3=C\\c2ccc[nH]2)c1", "No"],
  ["Cc1ccc(C(=O)Nc2ccc(CN3CCN(C)CC3)c(C(F)(F)F)c2)cc1C#Cc1cnc(N)cc1C#N", "No"],
  ["COc1ccc2c(c1)c(-c1nonc1-c1cn(C)c3ccccc13)cn2C", "No"]
]}
